Target: Concanavalin-A (Canavalia ensiformis)
Assay: ConA small-molecule binders, primary screen, artefact control for SMM control protein annotation, biochemical, small-molecule microarray, Alexa647 label, 635 nm (AID 1127);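 also: z combines 667 nm emission intensity with signal-to-noise across three replicate slides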
Settings: ConA-A647 binding fluorescence, higher = more signal
Listing of recorded composite z-score by entry.
readout_name: composite z-score

>>> reported("CCOC(=O)[C@H](Cc1ccccc1)NC(=O)CCC1CC(OC(=O)NCc2cccc3ccccc23)CC2(CCCC(COC(=O)NCCOc3ccccc3)O2)O1 (some centres undefined)")
1.12
>>> reported("Cc1cc2c(nc1C)CCCCN2CC(O)CN1CCCc2nc(-c3ccc(Br)cc3)ccc21 (centres undefined)")
0.783
>>> reported("COc1ccc(OC[C@H]2CN3[C@@H](CC[C@@H](C)[C@@H]3c3ccc(Br)cc3)C(=O)O2)cc1")
0.297
>>> reported("CC(=O)OC[C@H]1O[C@@H](ON=C(C)CCN2CCCCc3nc(C)c(C)cc32)[C@H](OC(C)=O)[C@@H](OC(C)=O)[C@@H]1OC(C)=O")
0.289
